Reported Population Apoptotic (%) values for the following compounds.
# System: Fibroblast
# experimentSummary: Multiplex assay against human fibroblast
# Type: toxicity, cell-based
# conditionDescription: 12 h, 1 µM, compound concentration 1 uM, replicate 1
Numbers only; they are read as %.

CNC(=O)c1ccc(Nc2nc(OC3CCCC3)c3c(-c4ccc5nc(C)oc5c4)c[nH]c3n2)c(OC)c1    69
CCOc1cc2ncc(C#N)c(Nc3ccc(OCc4ccccn4)c(Cl)c3)c2cc1NC(=O)/C=C/CN(C)C [NERATINIB]    55
C=CCn1c(=O)c2cnc(Nc3ccc(N4CCN(C)CC4)cc3)nc2n1-c1cccc(C(C)(C)O)n1 [ADAVOSERTIB]    69

Then this compound:
Kindly state the measured Population Apoptotic (%) obtained for CN(C)C(=O)C(CCN1CCC(O)(c2ccc(Cl)cc2)CC1)(c1ccccc1)c1ccccc1.Cl [LOPERAMIDE HYDROCHLORIDE] with Fibroblast. 54

---

# Test system: HEK-293T
# experimentSummary: Multiplex assay against HEK293T;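 as to Population Tubulin-Different-Phenotype (%): share of the cells with healthy nuclei that show this phenotype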
# Assay type: toxicity, cell-based
# conditionDescription: human, 12 h, 10 µM, compound concentration 10 uM, replicate 2
Reported Population Tubulin-Different-Phenotype (%) values for the following molecules.
Numbers only; they are read as %.

Below, each entry is followed by its recorded Population Tubulin-Different-Phenotype (%) result.
Cl.O=C(c1ccc(Nc2nccc(-c3cc4ccccc4s3)n2)cc1)N1CCC(N2CCCC2)CC1    97
CN(C)C(=O)C(CCN1CCC(O)(c2ccc(Cl)cc2)CC1)(c1ccccc1)c1ccccc1.Cl [LOPERAMIDE HYDROCHLORIDE]    70
CCc1cccc(CC)c1NC(=O)c1nn(C)c2c1CCc1cnc(Nc3ccc(N4CCN(C)CC4)cc3OC)nc1-2    57
CCOc1cc2ncc(C#N)c(Nc3ccc(OCc4ccccn4)c(Cl)c3)c2cc1NC(=O)/C=C/CN(C)C    15
CCCS(=O)(=O)c1nc(NC2CC2)cc(-c2ccc3c(ccn3C3CC(C)(C)NC(C)(C)C3)c2)n1    100

Request the reported Population Tubulin-Different-Phenotype (%) associated with CCN1CCN(Cc2ccc(Nc3ncc(F)c(-c4cc(F)c5nc(C)n(C(C)C)c5c4)n3)nc2)CC1.CS(=O)(=O)O 97

Same question for CCOC(=O)c1c(C)[nH]c2ccc3c(c12)CN1CCc2cc(OC)ccc2C1O3 (configuration not stated) please. 92

Same question for Cl.O=c1c2cccn2c2ccccc2n1CCCN1CCC(c2ccc(Cl)cc2)CC1 please. 86

Same question for O=C(Cc1ccc(-c2ccc(OCCN3CCOCC3)cc2)cn1)NCc1ccccc1 please. 6

Same question for Cc1cn(-c2cc(NC(=O)c3ccc(C)c(Nc4nccc(-c5cccnc5)n4)c3)cc(C(F)(F)F)c2)cn1 please. 80

Same question for O=C(Nc1ccc(-n2nc(-c3cccnc3)cc2C(F)(F)F)cn1)c1ccc(-c2ccccc2)c(F)c1 please. 13

---

# Test system: HEK-293T
# experimentSummary: Incucyte cell viability with HEK293T; also: filed as whole numbers so only -1 and 0 and 1 occur
# Format: toxicity, cell-based
# conditionDescription: human, 24 h, 10 µM, compound concentration 10 uM, replicate number 1, timepoint 24 hours
Reported Growth Rate values for the following compounds.
# output: bare number, no unit

Below, each entry is followed by its recorded Growth Rate result.
CCCc1c(OCCCOc2ccc(OCC(=O)O)cc2)ccc(C(C)=O)c1O    1
O=C(NOCC1CC1)c1ccc(F)c(F)c1Nc1ccc(I)cc1Cl    0
CC(C)(C)OC(=O)N1CCCC1CNC1CCC(c2cc(F)ccc2F)(S(=O)(=O)c2ccc(Cl)cc2)CC1 (configuration not stated)    1
O=c1ccn([C@@H]2O[C@H](COP(=O)([O-])OP(=O)([O-])O)[C@@H](O)[C@H]2O)c(=O)[nH]1.[Na+].[Na+]    1
Cl.Oc1ccc2c3c1O[C@H]1c4[nH]c5c(c4C[C@@]4(O)[C@@H](C2)N(CC2CC2)CC[C@]314)C[C@@]1(O)[C@H]2Cc3ccc(O)c4c3[C@@]1(CCN2CC1CC1)[C@H]5O4    1

Request the reported Growth Rate associated with N[C@@H](Cc1cc(I)c(Oc2ccc(O)c(I)c2)c(I)c1)C(=O)O 1

Same question for Cl.O=C(O)Cc1cccc(OCCCN(Cc2cccc(C(F)(F)F)c2Cl)CC(c2ccccc2)c2ccccc2)c1 please. 0

---

# Test system: HEK-293T
# experimentSummary: Multiplex assay against HEK293T;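 as to Population Tubulin-Different-Phenotype (%): share of the cells with healthy nuclei that show this phenotype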
# Assay type: toxicity, cell-based
# conditionDescription: human, 48 h, 1 µM, compound concentration 1 uM, replicate 1
Reported Population Tubulin-Different-Phenotype (%) values for the following compounds.
Numbers only; they are read as %.

Request the reported Population Tubulin-Different-Phenotype (%) associated with Cc1cn(-c2cc(NC(=O)c3ccc(C)c(Nc4nccc(-c5cccnc5)n4)c3)cc(C(F)(F)F)c2)cn1 [NILOTINIB] 85

Same question for CCOc1cc(C(=O)N2CCC(N3CCN(C)CC3)CC2)ccc1Nc1ncc2c(n1)N(C1CCCC1)c1ccccc1C(=O)N2C please. 65

Same question for CCOc1cc2ncc(C#N)c(Nc3ccc(OCc4ccccn4)c(Cl)c3)c2cc1NC(=O)/C=C/CN(C)C [NERATINIB] please. 29

Same question for CCOC(=O)c1c(C)[nH]c2ccc3c(c12)CN1CCc2cc(OC)ccc2C1O3 (configuration not stated) please. 50

---

# Tested on: U2OS
# experimentSummary: Incucyte cell viability with U2OS; also: filed as whole numbers so only -1 and 0 and 1 occur
# Type: toxicity, cell-based
# conditionDescription: human, 6 h, 10 µM, compound concentration 10 uM, replicate number 1, timepoint 6 hours
Reported Growth Rate values for the following compounds.

Cc1ccc(-c2cnc([C@@]3(O)CC[C@H](C(=O)O)C(C)(C)C3)s2)cc1Nc1cccc(C(F)(F)F)n1    0

Request the reported Growth Rate associated with CCCCCCCCCCCCCCCCOC[C@H](COP(=O)([O-])OCC[N+](C)(C)C)OC(C)=O 0

Same question for CN1CCN(c2cnc3c(C4CCN(C(=O)c5ccc(OC(F)(F)F)cc5N)CC4)ncnc3c2)CC1 please. 0

Same question for COc1cc(OC)cc(-c2noc(N3CCN(C)C4(CCN(c5ccnc(C)c5)CC4)C3)n2)c1 please. 0

Same question for O=c1ccn([C@@H]2O[C@H](COP(=O)([O-])OP(=O)([O-])O)[C@@H](O)[C@H]2O)c(=O)[nH]1.[Na+].[Na+] please. 0

Same question for COc1cccc2cc(-c3nc([C@H]4CC[C@H](C(=O)O)CC4)n4ncnc(N)c34)[nH]c12 please. 1

Same question for Cc1ccc2nc(NCCN)c3ncc(C)n3c2c1.O=C(O)C(F)(F)F.O=C(O)C(F)(F)F please. 0

Same question for O=S(=O)(NC1CCC(c2cc(F)ccc2F)(S(=O)(=O)c2ccc(Cl)cc2)CC1)C(F)(F)F (stereo not drawn) please. 1

---

# Tested on: U2OS
# experimentSummary: Multiplex assay against U2OS
# Format: toxicity, cell-based
# conditionDescription: human, 24 h, 10 µM, compound concentration 10 uM, replicate 1
measure: Population Membrane Permeable-Phenotype (%)
Numbers only; they are read as %.

Cc1cc(C)c(S(=O)(=O)N(Cc2ccc(-c3cccc(S(C)(=O)=O)c3)cc2)Cc2ccc(C(F)(F)F)o2)c(C)c1    47
CCN1CCN(c2ccc(Nc3cc(N(C)C(=O)Nc4c(Cl)c(OC)cc(OC)c4Cl)ncn3)cc2)CC1 [INFIGRATINIB]    15
Cl.Oc1ccc2c3c1O[C@H]1c4[nH]c5c(c4C[C@@]4(O)[C@@H](C2)N(CC2CC2)CC[C@]314)C[C@@]1(O)[C@H]2Cc3ccc(O)c4c3[C@@]1(CCN2CC1CC1)[C@H]5O4    3
CCN1CCN(Cc2ccc(Nc3ncc(F)c(-c4cc(F)c5nc(C)n(C(C)C)c5c4)n3)nc2)CC1.CS(=O)(=O)O    72
CCc1cccc(CC)c1NC(=O)c1nn(C)c2c1CCc1cnc(Nc3ccc(C(=O)NC4CCN(C)CC4)cc3OC(F)(F)F)nc1-2    40

Then this compound:
Request the reported Population Membrane Permeable-Phenotype (%) associated with CCCS(=O)(=O)Nc1ccc(F)c(C(=O)c2c[nH]c3ncc(Cl)cc23)c1F [PLX-4720] 5

---

# Test system: HEK-293T
# experimentSummary: Multiplex assay against HEK293T
# Format: toxicity, cell-based
# conditionDescription: human, 12 h, 1 µM, compound concentration 1 uM, replicate 2
Quick rule for you: Population Mitochondria Different-Phenotype (%) under 30% gets fulfilled, anything else gets not fulfilled.

Solved cases below.
CNC(=O)c1ccc(Nc2nc(OC3CCCC3)c3c(-c4ccc5nc(C)oc5c4)c[nH]c3n2)c(OC)c1    not fulfilled
Cc1cn(-c2cc(NC(=O)c3ccc(C)c(Nc4nccc(-c5cccnc5)n4)c3)cc(C(F)(F)F)c2)cn1    fulfilled
CCNc1cc(N[C@H]2CC[C@H](O)CC2)nc(Nc2ccc3c(ccn3Cc3ccccc3)c2)n1    not fulfilled

Item CNc1cc(Oc2cc(C(=O)Nc3cc(N4CCN(C)CC4)cc(C(F)(F)F)c3)ccc2C)ncn1 : Population Mitochondria Different-Phenotype (%) beneath 30%, strictly? not fulfilled

Same question for S=C(NCCCc1c[nH]cn1)NCCCN(Cc1ccc(Cl)c(Cl)c1)c1ccc(Br)cn1 please. fulfilled

Same question for O=C1N/C(=N/c2ccccc2F)S/C1=C\c1ccc(C(=O)O)cc1 please. fulfilled

Same question for CN[C@@H]1C[C@H]2O[C@@](C)([C@@H]1OC)n1c3ccccc3c3c4c(c5c6ccccc6n2c5c31)C(=O)NC4 please. fulfilled

Hello, the source for this data is ChEMBL document CHEMBL4689842, in case you need it.
